tested on: U2OS; assay: cell viability relative to DMSO; higher = less toxic; settings: 72 h; 10 nM

COMPOUND | cell viability / %
COC(=O)c1c(C)[nH]c(C)c1C(=O)c1ccccc1Cc1ccccc1 | 103
COc1cc2c(NC3CCN(C(C)C)CC3)nc(N3CCC(F)(F)CC3)nc2cc1OCCCN1CCCC1 | 95.4
CCCCOC(=O)c1ccc(N)cc1 | 96.5
Cc1ccc(C)c(OCCCC(C)(C)C(=O)O)c1 | 101
C=C[C@@]1(C)CC(=O)[C@]2(O)[C@@]3(C)[C@@H](O)CCC(C)(C)[C@@H]3[C@H](O)[C@H](OC(C)=O)[C@@]2(C)O1 | 101
CNNCc1ccc(C(=O)NC(C)C)cc1 | 103
C[C@@H](C(=O)O)c1ccc(-c2ccccc2)c(F)c1 (racemic) [flurbiprofen-(+/-)] | 100
CCN(Cc1ccc(Cl)nc1)/C(=C/[N+](=O)[O-])NC | 97
O=C1CNC(=O)CN1 | 99
NS(=O)(=O)c1cc2c(cc1C(F)(F)F)NCNS2(=O)=O [hydroflumethiazide] | 101
O=C(O)Cc1cccnc1C(=O)O | 100
O=C(c1cccc(Br)c1)N1CCC(N2CCCC2)CC1 | 97.2
N#CCC(=O)NN [cyacetacide] | 103
O=C(c1ccc(C(=O)N2CCC(N3CCCC3)CC2)c(Nc2ccccc2)c1)N1CCC(N2CCCC2)CC1 | 102
COC(=O)C1=C(C)NC(C)=C(C(=O)NCCCN2CCC(c3ccccc3)(c3ccccc3)CC2)C1c1ccc([N+](=O)[O-])cc1 (centres undefined) | 98.7
CCCCCCCCCC(=O)OC1(c2ccc(Cl)cc2)CCN(CCCC(=O)c2ccc(F)cc2)CC1 [haloperidol-decanoate] | 101
CNc1cc2c(Nc3cccc(Br)c3)ncnc2cn1 | 97.6
CN1CCN(C(c2ccccc2)c2ccccc2)CC1 | 94
CCNC(=O)c1noc(-c2cc(C(C)C)c(O)cc2O)c1-c1ccc(CN2CCOCC2)cc1 | 57.9
